Attribute: cell viability
- System: HepG2
- test: cell viability relative to DMSO; higher = less toxic
- condition.summary: 72 h; 1000 nM
Include the unit after the number when you answer.

compound="CCCC[C@H]1OC(=O)c2ccccc21 [butylphthalide]" study_target=HepG2 recorded_measurement=97.8%
compound="CC1(C)Cc2c(-c3ccccc3)c(-c3ccc(Cl)cc3)c(CC(=O)O)n2C1 [licofelone]" study_target=HepG2 recorded_measurement=101%
compound="CC(C)N(CCCNC(=O)Nc1ccc(C(C)(C)C)cc1)C[C@H]1O[C@@H](n2cc(Br)c3c(N)ncnc32)[C@H](O)[C@@H]1O [SGC-0946]" study_target=HepG2 recorded_measurement=104%

# context switch: different compound, same cell viability
Lookup: Please give the measured cell viability for this compound: OC[C@H]1O[C@@H](Oc2ccc(O)cc2)[C@H](O)[C@@H](O)[C@@H]1O [arbutin]
Found: 105%

Origin of measurements: the supplement of paper PMC13380429
